Molecular target: IRAK4 (Homo sapiens)
Test: NanoBRET target engagement assay in HEK-293 cells, IRAK4
Type: cell-based
Settings: Table 20; live HEK-293 cells, 1 h
Method: The NanoBRET assay measures kinase engagement in real time in the context of the intact cell. […] Under the appropriate tracer conditions established by the manufacturer, quantitative intracellular affinity and relative potency can then be determined using Mass Action model equations. […] Assays were conducted following Promega assay protocol with some modifications. […] The donor emission wavelength (460 nm) and acceptor emission wavelength (600 nm) were measured in the En Visionplate reader. […]
measurement name: log10(IC50) (log10 of the value in nM)
// do not treat as linear: log10 of IC50, unit nM

// query Requested read-out log10(IC50), target or system IRAK4 (Homo sapiens), entry COc1cn2ncc(-c3nc(N[C@@H]4CCCNC4)ncc3F)c2nc1C(C)(C)O
// result 0.48

// query Requested read-out log10(IC50), target or system IRAK4 (Homo sapiens), entry COc1cn2ncc(-c3nc(N[C@H]4CNC[C@@H]4F)ncc3F)c2nc1C(C)(C)O
// result 0.30

// query Requested read-out log10(IC50), target or system IRAK4 (Homo sapiens), entry COc1cn2ncc(-c3ccnc(N[C@H]4CNC[C@@H]4F)n3)c2nc1C1CC1
// result -0.22

// query Requested read-out log10(IC50), target or system IRAK4 (Homo sapiens), entry COc1cn2ncc(-c3ccnc(N[C@H]4CNCC[C@@H]4F)n3)c2nc1C(C)(C)O
// result 0.90

***
// query Requested read-out log10(IC50), target or system IRAK4 (Homo sapiens), entry COc1cn2ncc(-c3ccnc(N[C@H]4CNCC[C@@H]4F)n3)c2nc1C1CC1
// result -0.10

====

Biological target: FLT3 (Homo sapiens, UniProt P36888)
Experiment: RBC HotSpot kinase inhibition assay, FLT3
Format: biochemical
Conditions: Table 11; isolated kinase, 33P-ATP, 2 h
pIC50: −log10 of the molar value.
Listing of entries alongside the reported pIC50.

Use the examples below as a reference point.
// query Look up pIC50 for this compound: F[C@H]1CNC[C@@H]1Nc1cccc(-c2cnn3cc(C4CC4)cnc23)n1
// result 7.82

// query Look up pIC50 for this compound: COc1cn2ncc(-c3nc(N[C@@H]4CCCNC4)c(F)cc3F)c2nc1C(C)(C)O
// result > 9.30

// query Look up pIC50 for this compound: COc1cn2ncc(-c3ccc(F)c(N[C@H]4CNCC[C@@H]4F)n3)c2nc1C1CC1
// result > 9.30

// query Look up pIC50 for this compound: COc1cnc2c(-c3cccc(N[C@H]4CNC[C@@H]4F)n3)cnn2c1
// result 7.74

***
// query Look up pIC50 for this compound: COc1cn2ncc(-c3nc(N[C@H]4CNC[C@@H]4F)c(F)cc3F)c2nc1C(C)(C)O
// result > 9.30

// query Look up pIC50 for this compound: COc1cn2ncc(-c3nc(N[C@H]4CNCC[C@@H]4F)c(F)cc3F)c2nc1C1CC1
// result > 9.30

====

Target: IRAK4 (Homo sapiens, UniProt Q9NWZ3)
Sequence (Q9NWZ3 1-460): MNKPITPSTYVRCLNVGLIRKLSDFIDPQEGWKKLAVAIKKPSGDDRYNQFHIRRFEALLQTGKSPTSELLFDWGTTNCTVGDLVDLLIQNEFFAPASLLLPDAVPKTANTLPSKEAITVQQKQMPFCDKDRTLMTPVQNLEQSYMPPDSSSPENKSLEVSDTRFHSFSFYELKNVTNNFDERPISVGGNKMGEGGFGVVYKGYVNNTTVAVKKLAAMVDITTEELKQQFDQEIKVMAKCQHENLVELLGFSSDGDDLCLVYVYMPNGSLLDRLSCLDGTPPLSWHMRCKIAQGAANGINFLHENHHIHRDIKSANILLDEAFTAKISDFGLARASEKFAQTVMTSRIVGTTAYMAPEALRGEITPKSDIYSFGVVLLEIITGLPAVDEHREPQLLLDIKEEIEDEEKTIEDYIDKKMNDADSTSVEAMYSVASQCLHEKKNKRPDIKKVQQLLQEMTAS
Assay: DiscoverX KINOMEscan active site-directed competition binding, IRAK4
Conditions: Table 12; no ATP
Listing of entries alongside the reported Kd.

// query Look up Kd for this compound: COc1cn2ncc(-c3nc(N[C@H]4CNCC[C@@H]4F)c(C#N)cc3F)c2nc1C(C)(C)O [Compound 10]
// result < 0.17 nM

***
// query Look up Kd for this compound: COc1cn2ncc(-c3nc(N[C@H]4CNCC[C@@H]4F)c(C#N)cc3F)c2nc1C1CC1 [Compound 7]
// result < 0.17 nM

// query Look up Kd for this compound: COc1cn2ncc(-c3nc(N[C@H]4CNCC[C@@H]4F)c(F)cc3F)c2nc1C(C)(C)O [Compound 13]
// result < 0.17 nM

====

Listing of entries alongside the reported Kd.
Biological target: FLT3 D835H (Homo sapiens, UniProt P36888, D835H)
Assay: DiscoverX KINOMEscan active site-directed competition binding, FLT3 D835H
Details: Table 18; no ATP
Output spec: scalar in nM, unitless text.

// query Look up Kd for this compound: COc1cn2ncc(-c3cncc(N[C@H]4CNCC[C@@H]4F)n3)c2nc1C1CC1 [Compound 12a]
// result 0.54

***
// query Look up Kd for this compound: COc1cn2ncc(-c3ccnc(N[C@H]4CNCC[C@@H]4F)n3)c2nc1C1CC1
// result 1.2

// query Look up Kd for this compound: COc1cn2ncc(-c3nc(N[C@H]4CNCC[C@@H]4F)ncc3F)c2nc1C(C)(C)O
// result 0.25

// query Look up Kd for this compound: COc1cn2ncc(-c3nc(N[C@H]4CNCC[C@@H]4F)ncc3F)c2nc1C1CC1 [Compound 15a]
// result 0.37

// query Look up Kd for this compound: COc1cn2ncc(-c3nc(N[C@@H]4CCCNC4)ncc3F)c2nc1C1CC1 [Compound 14a]
// result 0.2

====

Listing of entries alongside the reported IC50.
Test system: MOLM14 D835Y cells
Test: MOLM14 D835Y cell viability (Cell Titer Glo)
Type: cell-based
Details: Homo sapiens, MOLM-14, Table 16, 48 h
Please state the value followed by its unit.

Use the examples below as a reference point.
// query Look up IC50 for this molecule: COc1cn2ncc(-c3nc(N[C@H]4CNC[C@@H]4F)c(F)cc3F)c2nc1C(C)(C)O
// result 32 nM

// query Look up IC50 for this molecule: COc1cn2ncc(-c3cccc(N[C@H]4CNC[C@@H]4F)n3)c2nc1C1CC1
// result 58 nM

// query Look up IC50 for this molecule: COc1cn2ncc(-c3nc(N[C@@H]4CCCNC4)ccc3F)c2nc1C1CC1
// result 2 nM

// query Look up IC50 for this molecule: COc1cn2ncc(-c3nc(N[C@H]4CNC[C@@H]4F)c(F)cc3F)c2nc1C1CC1
// result 2 nM

// query Look up IC50 for this molecule: COc1cn2ncc(-c3nc(N[C@H]4CNC[C@@H]4F)ccc3F)c2nc1C1CC1
// result 9 nM

***
// query Look up IC50 for this molecule: COc1cn2ncc(-c3ccc(F)c(N[C@H]4CNCC[C@@H]4F)n3)c2nc1C1CC1
// result 11 nM

// query Look up IC50 for this molecule: COc1cn2ncc(-c3ccc(F)c(N[C@H]4CNC[C@@H]4F)n3)c2nc1C1CC1
// result 36 nM

// query Look up IC50 for this molecule: COc1cn2ncc(-c3nc(N[C@H]4CNCC[C@@H]4F)c(F)cc3F)c2nc1C(C)(C)O
// result 14 nM

====

Listing of entries alongside the reported pIC50.
Target: IRAK4 (Homo sapiens)
Experiment: RBC HotSpot kinase inhibition assay, IRAK4
Type: biochemical
Conditions: Table 11; isolated kinase, 33P-ATP, 2 h
Field pIC50 (float): negative decimal logarithm of the concentration in molar.

Use the examples below as a reference point.
// query Requested read-out pIC50, target or system IRAK4 (Homo sapiens), entry COc1cn2ncc(-c3ccc(F)c(N[C@@H]4CCCNC4)n3)c2nc1C1CC1
// result 8.52

// query Requested read-out pIC50, target or system IRAK4 (Homo sapiens), entry COc1cn2ncc(-c3ccc(F)c(N[C@H]4CNCC[C@@H]4F)n3)c2nc1C1CC1
// result 9.22

// query Requested read-out pIC50, target or system IRAK4 (Homo sapiens), entry FC(F)COc1cnc2c(-c3cccc(N[C@H]4CNC[C@@H]4F)n3)cnn2c1
// result 7.21

***
// query Requested read-out pIC50, target or system IRAK4 (Homo sapiens), entry COc1cn2ncc(-c3ccc(F)c(N[C@H]4CNC[C@@H]4F)n3)c2nc1C1CC1
// result 9.05

====

System: NF-κB
Assay: NF-κB SEAP reporter assay in THP-1-Blue NF-κB cells, Pam3CSK4 stimulated
Format: cell-based
Settings: Table 15; THP-1-Blue cells, 1 ng/ml Pam3CSK4, 24 h; read-out: NF-κB Pam3SCK4 IC50
measurement name: pIC50
Field pIC50 (float): negative decimal logarithm of the concentration in molar.

// query Look up pIC50 for this compound: COc1cn2ncc(-c3nc(N[C@@H]4CCCNC4)c(C#N)cc3F)c2nc1C(C)(C)O
// result 7.41

// query Look up pIC50 for this compound: COc1cn2ncc(-c3nc(N[C@H]4CNC[C@@H]4F)c(F)cc3F)c2nc1C(C)(C)O
// result 7.38

// query Look up pIC50 for this compound: COc1cn2ncc(-c3nc(N[C@H]4CNCC[C@@H]4F)c(C#N)cc3F)c2nc1C(C)(C)O
// result 7.66

Now consider a different compound.
// query Look up pIC50 for this compound: COc1cn2ncc(-c3nc(N[C@H]4CNCC[C@@H]4F)c(F)cc3F)c2nc1C1CC1
// result 8.15

Values compiled from patent US20260374773A1.
